What GI Tract stability was measured for each of the following?
assay_overview: Prodrug stability assay in bio-relevant media (FaSSIF with Pancreatin, simulated gastrointestinal tract conditions)
Format: in vitro ADME
conditions_used: % parent prodrug remaining at 5 h vs 0 h, 37° C., 0.5 mg/mL Pancreatin in FaSSIF, HPLC area ratio
Answer as a quantity: numeral, then unit.

- CC(C)OC(=O)[C@H](C)OP(=O)(CO[C@H](C)Cn1cnc2c(N)ncnc21)NC(C)(C)C(=O)OCc1ccccc1 (stereo partly drawn): 58.50%

State the recorded GI Tract stability for every item in the following list.
1. CC(C)OC(=O)[C@H](C)OP(=O)(CO[C@H](C)Cn1cnc2c(N)ncnc21)NC(C)(C)C(=O)OC1CCCC1 (single isomer, unassigned) [Example 18B]
2. CC(C)OC(=O)COP(=O)(CO[C@H](C)Cn1cnc2c(N)ncnc21)NC(C)(C)C(=O)OCc1ccccc1 (mixture of isomers)
3. CCCCCOC(=O)C(C)(C)NP(=O)(CO[C@H](C)Cn1cnc2c(N)ncnc21)OCC(=O)OC(C)C (single isomer, unassigned) [Example 4B]
4. CCCCCCOC(=O)C(C)(C)NP(=O)(CO[C@H](C)Cn1cnc2c(N)ncnc21)OCC(=O)OC(C)C (single isomer, unassigned) [Example 6B]
5. CC(C)OC(=O)[C@H](C)OP(=O)(CO[C@H](C)Cn1cnc2c(N)ncnc21)NC(C)(C)C(=O)OC1CCCCC1 (single isomer, unassigned) [Example 12A]
6. CCCCCOC(=O)C(C)(C)NP(=O)(CO[C@H](C)Cn1cnc2c(N)ncnc21)O[C@@H](C)C(=O)OC(C)C (single isomer, unassigned) [Example 2A]
7. CC(C)OC(=O)COP(=O)(CO[C@H](C)Cn1cnc2c(N)ncnc21)NC1(C(=O)OC(C)C)CCCC1 (stereo partly drawn)
8. CCCCCOC(=O)C(C)(C)NP(=O)(CO[C@H](C)Cn1cnc2c(N)ncnc21)OCC(=O)OC1CCCC1 (stereo partly drawn)

OUT:
1. 91.31%
2. 73.54%
3. 98.87%
4. 73.16%
5. 98.95%
6. 61.61%
7. 99.44%
8. 88.87%

Count: 6. Required value per item: GI Tract stability.
1. CCCCCOC(=O)C(C)(C)NP(=O)(CO[C@H](C)Cn1cnc2c(N)ncnc21)O[C@@H](C)C(=O)OC1CCCC1 (single isomer, unassigned) [Example 19B]
2. CC(C)OC(=O)[C@H](C)OP(=O)(CO[C@H](C)Cn1cnc2c(N)ncnc21)NC1(C(=O)OC(C)C)CC1 (stereo partly drawn)
3. CCCCCOC(=O)C(C)(C)NP(=O)(CO[C@H](C)Cn1cnc2c(N)ncnc21)O[C@@H](C)C(=O)OC(C)C (single isomer, unassigned) [Example 2B]
4. CC(C)OC(=O)COP(=O)(CO[C@H](C)Cn1cnc2c(N)ncnc21)NC(C)(C)C(=O)OC(C)C (single isomer, unassigned) [Example 3A]
5. CC(C)OC(=O)[C@H](C)OP(=O)(CO[C@H](C)Cn1cnc2c(N)ncnc21)NC(C)(C)C(=O)OC(C)C (single isomer, unassigned) [Example 1B]
6. CC(C)OC(=O)C(C)(C)NP(=O)(CO[C@H](C)Cn1cnc2c(N)ncnc21)O[C@@H](C)C(=O)OC1CCCC1 (single isomer, unassigned) [Example 13A]

OUT:
100.00%
93.55%
91.95%
96.63%
99.82%
70.30%
